# test-target: T1, LLHD3 (Mus musculus, UniProt P61372;P50481)
# T1 chain: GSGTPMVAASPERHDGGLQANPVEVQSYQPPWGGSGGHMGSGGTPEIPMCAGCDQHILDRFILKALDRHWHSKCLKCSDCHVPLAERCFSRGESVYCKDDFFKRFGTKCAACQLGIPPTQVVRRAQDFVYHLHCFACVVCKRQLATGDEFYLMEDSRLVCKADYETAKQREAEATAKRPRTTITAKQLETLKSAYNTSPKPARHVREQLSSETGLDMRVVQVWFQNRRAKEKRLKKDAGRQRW
# method-summary: EMSA
pKd: −log10 of the molar value.
measurement-label: pKd

binder="M100 (EMSA) (dsDNA) DNA 1: CGGCCATTAGCCAAATTACGGC DNA 2: GCCGTAATTTGGCTAATGGCCG" measurement_label=pKd assay_value=6.00
